Measured values drawn from ChEMBL document CHEMBL1201862 for this set.

targetSystem: Short transient receptor potential channel 4 (Mus musculus)
Sequence (Q9QUQ5 whole entry): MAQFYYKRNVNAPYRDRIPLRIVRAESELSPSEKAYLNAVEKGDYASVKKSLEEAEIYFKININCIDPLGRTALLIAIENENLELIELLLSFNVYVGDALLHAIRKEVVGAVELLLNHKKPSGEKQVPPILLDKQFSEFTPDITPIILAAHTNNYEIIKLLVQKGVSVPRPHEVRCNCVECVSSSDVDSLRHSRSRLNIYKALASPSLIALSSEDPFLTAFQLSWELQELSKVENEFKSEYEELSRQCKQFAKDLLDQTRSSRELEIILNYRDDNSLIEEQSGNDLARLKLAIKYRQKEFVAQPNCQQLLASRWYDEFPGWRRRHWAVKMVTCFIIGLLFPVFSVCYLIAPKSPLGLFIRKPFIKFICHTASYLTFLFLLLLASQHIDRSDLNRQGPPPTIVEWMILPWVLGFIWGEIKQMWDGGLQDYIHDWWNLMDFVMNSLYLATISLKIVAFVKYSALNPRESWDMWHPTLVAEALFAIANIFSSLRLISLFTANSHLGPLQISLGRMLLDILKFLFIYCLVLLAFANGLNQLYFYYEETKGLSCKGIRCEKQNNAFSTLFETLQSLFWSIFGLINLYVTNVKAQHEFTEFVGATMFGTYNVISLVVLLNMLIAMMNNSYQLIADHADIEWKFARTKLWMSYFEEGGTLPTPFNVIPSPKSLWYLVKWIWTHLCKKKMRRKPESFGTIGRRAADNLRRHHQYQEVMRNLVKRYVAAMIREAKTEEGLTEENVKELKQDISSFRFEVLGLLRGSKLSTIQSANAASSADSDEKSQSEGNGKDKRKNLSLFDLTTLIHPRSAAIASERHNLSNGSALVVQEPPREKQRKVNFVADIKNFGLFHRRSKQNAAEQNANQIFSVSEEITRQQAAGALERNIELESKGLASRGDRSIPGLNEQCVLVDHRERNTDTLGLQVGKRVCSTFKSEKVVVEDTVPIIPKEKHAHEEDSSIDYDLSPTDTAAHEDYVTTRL
assayMethodText: mouse TRPC4 channel inhibitors, dose response, cell-based, HEK293 TRPC4/mu-opioid, Fluo-4 calcium (AID 434942);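 note: potency of inhibitors blocking the TRPC4 calcium response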
Format: functional
Active and inactive are the calls of the source. The rule behind the calls is not given here.
Reported EC50 by item:

Query :: Look up EC50: "COc1ccc2c(c1)sc(N)[n+]2Cc1cc(C)cc2cccnc12"
Result :: 1.33 µM (active)

Query :: For the compound shown here, "CCCCc1nc2ccccc2c(N)c1CCC.O=C(O)c1cc([N+](=O)[O-])ccc1Cl" , give the reported EC50.
Result :: 1.19 µM (active)

Query :: Returns the measured EC50 for the input compound. Input: "O=C(CSc1nc2ccccc2c(=O)n1CCCO)N1CCc2ccccc21"
Result :: 0.596 µM (active)

Query :: Would you mind telling me what EC50 value was observed for Cc1ccccc1Cn1c(=N)n(CC(O)c2ccco2)c2ccccc21 (centres undefined) ?
Result :: 0.668 µM (active)
